This collection of values is drawn from patent EP2974737A1.

Target or test system: T1, purified interference factor(s) from Donor C (human)
T1 construct: the text names the donors 8, 19 and 30; also called interference in serum from Donor C
Assay comment: SPR, interference factor immobilized; % of Fig. 9 reference
Endpoint label: interference binding, % of Reference Sequence (%)

I. SEQ ID NO: 72 (VHH) VHH: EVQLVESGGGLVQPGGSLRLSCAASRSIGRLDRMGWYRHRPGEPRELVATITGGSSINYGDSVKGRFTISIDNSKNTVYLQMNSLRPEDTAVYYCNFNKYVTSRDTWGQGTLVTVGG
II. SEQ ID NO: 74 (VHH) VHH: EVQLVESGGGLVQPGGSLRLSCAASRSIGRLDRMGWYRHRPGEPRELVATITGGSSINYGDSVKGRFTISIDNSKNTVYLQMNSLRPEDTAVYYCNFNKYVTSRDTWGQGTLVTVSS
[ask] Compare I and II and name the one whose reported interference binding, % of Reference Sequence is smaller. Respond with the label that goes with your answer.
[reply] II
